# EXPERIMENTAL_SYSTEM: T1, human mesotrypsin (catalytically active) (human, UniProt P35030 81-304)
# T1 construct: mature; In the invasion assays it is the endogenous enzyme of PC3-M cells; also called active mesotrypsin; PRSS3 gene product
# T1 sequence (looked up): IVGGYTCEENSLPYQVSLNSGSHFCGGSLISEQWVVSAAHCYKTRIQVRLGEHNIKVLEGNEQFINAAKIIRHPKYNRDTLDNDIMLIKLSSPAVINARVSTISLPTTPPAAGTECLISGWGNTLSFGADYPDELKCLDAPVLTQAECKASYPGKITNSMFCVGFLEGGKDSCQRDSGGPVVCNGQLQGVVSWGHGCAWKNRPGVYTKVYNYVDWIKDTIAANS
# TEST: Ki against that of APPI-WT, mesotrypsin inhibition
MEASURED_PARAMETER: Ki (fold)

{"BINDER": "APPI-I18F (SEQ ID NO: 19), soluble (designed binder, not shown: AvrII site residues and C-terminal HIS6 tag) EVCSEQAETGPCRAMFSRWYFDVTEGKCAPFFYGGCGGNRNNFDTEEYCMAVCGSAI", "MEASURED_PARAMETER": "Ki (fold)", "UNITS_TEXT": "fold", "RESULT": 39.8}
{"BINDER": "APPI-F34V (SEQ ID NO: 23), soluble (designed binder, Variants were subcloned between EcoRI and AvrII of the APPI-WT pPIC9K template; not shown: AvrII site residues and C-terminal HIS6 tag) EVCSEQAETGPCRAMISRWYFDVTEGKCAPFVYGGCGGNRNNFDTEEYCMAVCGSAI", "MEASURED_PARAMETER": "Ki (fold)", "UNITS_TEXT": "fold", "RESULT": 2.6}
{"BINDER": "APPI-M17G/I18F (SEQ ID NO: 22), soluble (designed binder, not shown: AvrII site residues and C-terminal HIS6 tag) EVCSEQAETGPCRAGFSRWYFDVTEGKCAPFFYGGCGGNRNNFDTEEYCMAVCGSAI", "MEASURED_PARAMETER": "Ki (fold)", "UNITS_TEXT": "fold", "RESULT": 290}
{"BINDER": "APPI-I18F/F34V (SEQ ID NO: 20), soluble (designed binder, not shown: AvrII site residues and C-terminal HIS6 tag) EVCSEQAETGPCRAMFSRWYFDVTEGKCAPFVYGGCGGNRNNFDTEEYCMAVCGSAI", "MEASURED_PARAMETER": "Ki (fold)", "UNITS_TEXT": "fold", "RESULT": 39.8}
{"BINDER": "APPI-M17G/I18F/F34V (SEQ ID NO: 8), soluble (designed binder, also called APPI 3M; APPI^3M; not shown: AvrII site residues and C-terminal HIS6 tag) EVCSEQAETGPCRAGFSRWYFDVTEGKCAPFVYGGCGGNRNNFDTEEYCMAVCGSAI", "MEASURED_PARAMETER": "Ki (fold)", "UNITS_TEXT": "fold", "RESULT": 1460}
{"BINDER": "APPI-M17G/F34V (SEQ ID NO: 21), soluble (designed binder, not shown: AvrII site residues and C-terminal HIS6 tag) EVCSEQAETGPCRAGISRWYFDVTEGKCAPFVYGGCGGNRNNFDTEEYCMAVCGSAI", "MEASURED_PARAMETER": "Ki (fold)", "UNITS_TEXT": "fold", "RESULT": 93.6}

Where do the numbers come from? From patent US20180362616A1.
